So I've got a bunch of compounds here, and I need their remaining activity at 500 µM values.
- systemUnderTest: poly(ADP-ribose) polymerase 1 (PARP1) (Homo sapiens, UniProt P09874)
- Construct: made in house; host or cells: insect cells (baculovirus expression system)
- Sequence (P09874 whole entry): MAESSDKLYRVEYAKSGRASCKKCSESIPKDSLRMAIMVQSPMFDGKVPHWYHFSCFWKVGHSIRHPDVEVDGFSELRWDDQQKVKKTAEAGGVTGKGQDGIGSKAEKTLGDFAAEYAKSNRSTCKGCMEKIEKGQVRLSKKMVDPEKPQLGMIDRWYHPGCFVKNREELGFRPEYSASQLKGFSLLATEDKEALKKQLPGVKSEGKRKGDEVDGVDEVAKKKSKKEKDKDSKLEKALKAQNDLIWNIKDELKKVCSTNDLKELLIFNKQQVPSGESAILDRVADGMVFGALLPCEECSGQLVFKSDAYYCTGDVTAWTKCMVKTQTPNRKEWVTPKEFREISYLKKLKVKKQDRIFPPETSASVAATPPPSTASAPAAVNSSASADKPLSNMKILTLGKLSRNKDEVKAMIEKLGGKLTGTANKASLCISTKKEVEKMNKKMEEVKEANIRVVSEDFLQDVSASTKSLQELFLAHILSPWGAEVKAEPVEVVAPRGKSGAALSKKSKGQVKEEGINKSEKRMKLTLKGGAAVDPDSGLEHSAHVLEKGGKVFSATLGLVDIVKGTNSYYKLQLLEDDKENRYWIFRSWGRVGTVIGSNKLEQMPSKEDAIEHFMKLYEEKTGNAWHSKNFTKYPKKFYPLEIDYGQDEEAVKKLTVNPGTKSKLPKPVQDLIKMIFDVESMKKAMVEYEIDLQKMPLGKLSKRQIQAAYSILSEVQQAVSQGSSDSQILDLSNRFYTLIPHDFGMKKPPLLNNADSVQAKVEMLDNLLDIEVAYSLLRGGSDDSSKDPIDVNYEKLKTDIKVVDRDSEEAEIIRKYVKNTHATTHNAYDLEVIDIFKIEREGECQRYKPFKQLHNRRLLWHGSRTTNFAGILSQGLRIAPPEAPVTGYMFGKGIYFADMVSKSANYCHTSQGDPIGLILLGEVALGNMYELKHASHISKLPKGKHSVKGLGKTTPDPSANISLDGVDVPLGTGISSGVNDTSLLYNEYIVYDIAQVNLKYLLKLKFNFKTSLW
- methodDescription: PARP1 auto-poly(ADP-ribosyl)ation with [32P]-NAD+
- Format: biochemical
- assayConditions: compound 500 μM, PARP1 200 nM, 0.3 mM [32P]-NAD+, 2 min, 37 °C; mean ± SD; read-out: PARP1 % of residual activity (500 μM)

compound | systemUnderTest | experimentalResult
CN1CCN(c2ccc3nc(-c4ccc5nc(CNC(=O)CCN6CCN(CCC(=O)NCc7nc8ccc(-c9nc%10ccc(N%11CCN(C)CC%11)cc%10[nH]9)cc8[nH]7)CC6)[nH]c5c4)[nH]c3c2)CC1 [DB2P(2)] | poly(ADP-ribose) polymerase 1 (PARP1) (Homo sapiens, UniProt P09874) | 51%
CN1CCN(c2ccc3nc(-c4ccc5nc(-c6ccc7nc(CNC(=O)CCCCCC(=O)NCc8nc9ccc(-c%10nc%11ccc(-c%12nc%13ccc(N%14CCN(C)CC%14)cc%13[nH]%12)cc%11[nH]%10)cc9[nH]8)[nH]c7c6)[nH]c5c4)[nH]c3c2)CC1 [DB3(5)] | poly(ADP-ribose) polymerase 1 (PARP1) (Homo sapiens, UniProt P09874) | 62%
CN1CCN(c2ccc3nc(-c4ccc5nc(CNC(=O)CCCCN6CCN(CCCCC(=O)NCc7nc8ccc(-c9nc%10ccc(N%11CCN(C)CC%11)cc%10[nH]9)cc8[nH]7)CC6)[nH]c5c4)[nH]c3c2)CC1 [DB2P(4)] | poly(ADP-ribose) polymerase 1 (PARP1) (Homo sapiens, UniProt P09874) | 33%
CN1CCN(c2ccc3nc(-c4ccc5nc(-c6ccc7nc(CNC(=O)CCN8CCN(CCC(=O)NCc9nc%10ccc(-c%11nc%12ccc(-c%13nc%14ccc(N%15CCN(C)CC%15)cc%14[nH]%13)cc%12[nH]%11)cc%10[nH]9)CC8)[nH]c7c6)[nH]c5c4)[nH]c3c2)CC1 [DB3P(2)] | poly(ADP-ribose) polymerase 1 (PARP1) (Homo sapiens, UniProt P09874) | 40%

Each compound below has a reported value. Please supply its remaining activity at 500 µM.
1. CN1CCN(c2ccc3nc(-c4ccc5nc(-c6ccc7nc(CNC(=O)CN8CCN(CC(=O)NCc9nc%10ccc(-c%11nc%12ccc(-c%13nc%14ccc(N%15CCN(C)CC%15)cc%14[nH]%13)cc%12[nH]%11)cc%10[nH]9)CC8)[nH]c7c6)[nH]c5c4)[nH]c3c2)CC1 [DB3P(1)]
2. CCCn1cc(NC(=O)CCCCCCCCCCCC(=O)Nc2cc(-c3nc4ccc(-c5nc6ccc(N7CCN(C)CC7)cc6[nH]5)cc4[nH]3)n(CCC)c2)cc1-c1nc2ccc(-c3nc4ccc(N5CCN(C)CC5)cc4[nH]3)cc2[nH]1 [DB2Py(11)]
3. CN1CCN(c2ccc3nc(-c4ccc5nc(CNC(=O)CCCN6CCN(CCCC(=O)NCc7nc8ccc(-c9nc%10ccc(N%11CCN(C)CC%11)cc%10[nH]9)cc8[nH]7)CC6)[nH]c5c4)[nH]c3c2)CC1 [DB2P(3)]
4. CCCn1cc(NC(=O)CCCCCCCCCC(=O)Nc2cc(-c3nc4ccc(-c5nc6ccc(N7CCN(C)CC7)cc6[nH]5)cc4[nH]3)n(CCC)c2)cc1-c1nc2ccc(-c3nc4ccc(N5CCN(C)CC5)cc4[nH]3)cc2[nH]1 [DB2Py(9)]

Outgoing:
1. 70%
2. ~100%
3. 37%
4. ~100%
